# System: HeLa
# EXPERIMENTAL DETAILS: Primary qHTS to identify gynecologic anti-cancer compounds using libraries of approved drugs and bioactive compounds (AID 1345084); further: nearly all actives have a fitted effect of over 55% in size
# STUDY CONDITIONS: Gynecologic cancer cell panel viability, ATPlite luminescence, 48 h; series mostly up to 57.5 µM
Results filed as inconclusive are left out. Activity calls are given as the source filed them. The call rests on the fitted dose curve; in most records, active means well fitted cell-killing curve with a large enough effect; inconclusive means small, poorly fitted or top-dose-only effect, or effect the other way; inactive means flat fitted curve, though single readings scatter.
Outcome field: choose from active, inactive

Use the examples below as a reference point.
{"columns": ["COMPOUND", "CLASSIFICATION"],
 "data": [
  ["Cc1ccccc1-n1c(Cn2ncc3c(N)ncnc32)nc2cccc(C)c2c1=O", "inactive"],
  ["O=C(O)COc1nc(Cl)c(Cl)cc1Cl", "inactive"],
  ["CC(=O)N(C)c1cccc(-c2ccnc3c(C(=O)c4cccs4)cnn23)c1", "inactive"]
]}

# lookup: test call for COC1=C[C@@H]2[C@@H]3Cc4ccc(OC)c(O)c4[C@]2(CCN3C)CC1=O
inactive

# lookup: test call for CC(Cc1ccc(O)cc1)NCC(O)c1cc(O)cc(O)c1 (stereo unspecified)
inactive

# lookup: test call for CC(N[C@H]1C[C@H]1c1ccccc1)c1ccc2c(c1)OCCO2 (stereo partly specified)
inactive

# lookup: test call for O=S(=O)(c1ccc(Cl)cc1)c1ccc(Cl)cc1
inactive

# lookup: test call for COc1nn(CSP(=S)(OC)OC)c(=O)s1
inactive

# lookup: test call for CC(C)(C)NC[C@H](O)c1ccc(O)cc1Cl
inactive
